B1: tRNA (parent)
chain: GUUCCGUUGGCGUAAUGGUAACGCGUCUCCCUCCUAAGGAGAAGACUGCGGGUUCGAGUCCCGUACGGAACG

Variants of: B1
Assay: yeast fitness relative to wild type (ratio to wild type); higher = fitter; tRNA-Arg(CCU), competitive growth, 37 C, YPD
Fewer inactive variants are shown than the library holds.
quantity: yeast fitness

* C11G G48A C49G | 0.587
* G9A C55G A69C | 0.611
* A45U A65C G68A | 0.567
* U16G C29U C46U G67C A69U | 0.521
* G50C G56A G58A | 0.64
* U3C A45U G51C | 0.574
* C29G C55G A57G A69G | 0.606
* U19C G48A C62A | 0.91
* C5U C33G | 0.777
* C22G C27G C31G C49U C61G A69U | 0.534
* G10C G44U | 0.587
* A36G G56A A69U | 0.718
* C4A A20C C27U | 0.636
* A14G A43C A45G | 0.585
* A43G G68A | 0.873
* U19G U47C U64G | 0.536
* A15G C61A A69U | 0.643
* U16A A20C U53C | 0.599
* U13G A69U | 0.931
* A42G A43U C46U C62U | 0.551
* A57C G67C | 0.707
* A45C G50A C62U | 0.868
* C5G C46A A57G | 0.705
* G10A A21U C33A G68C | 0.607
* C24U C46A C62A A69C | 0.573
* A21C A40U A45G A65C | 0.547

Provenance of the data: the RNAGym collection of RNA variant scans (doi:10.1126/science.aae0568)
